Read-out: Vascular cell adhesion molecule 1 (VCAM1), VCAM1 (gene 7412)
Test: BSK_LPS_VCAM1: BioMAP Diversity Plus: LPS Assay for Vascular cell adhesion molecule 1 (VCAM1) Biomarker Activity (AID 2283086)
Conditions: primary human HUVEC with PBMC; actives raise or lower the signal
The source made the active and inactive calls. How the source made its calls: active means hit-call score of the fitted dose curve at least 0.9, where 1 is the maximum; inactive means score below 0.9.
# valid calls are class 1 = active, class 0 = inactive; nothing else

Worked examples, 3 compounds total:
[
  {
    "STRUCTURE SMILES": "CC(C)CCCCCCCOP(=O)(Oc1ccccc1)Oc1ccccc1",
    "GROUP LABEL": "class 1"
  },
  {
    "STRUCTURE SMILES": "Clc1ccc(-c2ccccc2)cc1",
    "GROUP LABEL": "class 0"
  },
  {
    "STRUCTURE SMILES": "CC(C)COP(=O)(OCC(C)C)OCC(C)C",
    "GROUP LABEL": "class 0"
  }
]

Please indicate how the test categorized CCc1cc(C)cc(CC)c1-c1c(OC(=O)C(C)(C)C)n2n(c1=O)CCOCC2 .
class 1

###

Assay: CCTE_Shafer_MEA_acute_per_burst_spike_number_mean: CCTE's Neural Acute Assay for Average Number of Spikes Per Burst, Shafer Lab (AID 2284015);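 further: hits are decreases in mean spikes per burst versus baseline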
Calls of active or inactive are those of the source. The calls were made as follows: active = hit-call score of the fitted dose curve at least 0.9, where 1 is the maximum; inactive = score below 0.9.
# valid calls are active, inactive; nothing else

Worked examples, 5 compounds total:
[
  {
    "COMPOUND": "CP(=O)(O)CCC(N)C(=O)O (centres undefined)",
    "GROUP LABEL": "active"
  },
  {
    "COMPOUND": "COc1ccc(CO)cc1",
    "GROUP LABEL": "active"
  },
  {
    "COMPOUND": "O=C(O)CNCP(=O)(O)O",
    "GROUP LABEL": "inactive"
  },
  {
    "COMPOUND": "Cc1ccc(OP(=O)(Oc2ccc(C)cc2)Oc2ccc(C)cc2)cc1 (tested in a mixture with another compound)",
    "GROUP LABEL": "active"
  },
  {
    "COMPOUND": "CC1(C)[C@@H](C=C(Cl)Cl)[C@@H]1C(=O)O[C@@H](C#N)c1ccc(F)c(Oc2ccccc2)c1",
    "GROUP LABEL": "active"
  }
]

Here is another compound to look at.
Please indicate how the test categorized O=[N+]([O-])O .
inactive

###

Experiment: CCTE_Shafer_MEA_dev_interburst_interval_mean: CCTE's Neural Network Formation Assay for Mean Interburst Interval, Shafer Lab (AID 2284046);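 further: well-mean interburst interval of bursting electrodes as AUC over four recording days; curve fitted for decrease in interburst interval relative to DMSO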
Active and inactive are the calls of the source. The calls were made as follows: active = hit-call score of the fitted dose curve at least 0.9, where 1 is the maximum; inactive = score below 0.9.
# valid calls are active, inactive; nothing else

Worked examples, 5 compounds total:
[
  {
    "COMPOUND": "Cn1nc(C(F)(F)F)c(CS(=O)(=O)C2=NOC(C)(C)C2)c1OC(F)F",
    "GROUP LABEL": "inactive"
  },
  {
    "COMPOUND": "NCCc1cc(O)c(O)cc1O",
    "GROUP LABEL": "inactive"
  },
  {
    "COMPOUND": "C#CCN(C)[C@H](C)Cc1ccccc1",
    "GROUP LABEL": "inactive"
  },
  {
    "COMPOUND": "CC1(C)C(C=C(Cl)c2ccc(Cl)cc2)C1C(=O)OC(C#N)c1ccc(F)c(Oc2ccccc2)c1 (stereo unspecified)",
    "GROUP LABEL": "active"
  },
  {
    "COMPOUND": "CCOP(=O)(OCC)SCSC(C)(C)C",
    "GROUP LABEL": "inactive"
  }
]

Please indicate how the test categorized CC1(C)C(C=C(Cl)Cl)C1C(=O)O[C@H](C#N)c1cccc(Oc2ccccc2)c1 (stereo partly specified) .
active

Please indicate how the test categorized CC1(C)[C@@H](C=C(Cl)Cl)[C@@H]1C(=O)O[C@@H](C#N)c1ccc(F)c(Oc2ccccc2)c1 .
inactive

Please indicate how the test categorized O.O.O.O.O.[Cd+2].[Cd+2].[Cl-].[Cl-].[Cl-].[Cl-] .
active

Please indicate how the test categorized C[n+]1ccc(-c2cc[n+](C)cc2)cc1 .
active

Please indicate how the test categorized CC1CCCC1.[C-]#[O+].[C-]#[O+].[C-]#[O+].[Mn] .
inactive

Please indicate how the test categorized O=C(O)CNCP(=O)(O)O .
inactive
